Each recorded value in this set is attributed to DBAASP.

# Test system: Klebsiella pneumoniae ATCC 700603
Measured attribute: log10(MIC) (log10 of the value in µM)
Transform log10 | Measure MIC | Unit µM

Problem: Give the reported log10(MIC) for CC(C)[C@H](N)C(=O)N[C@@H](Cc1c[nH]c2ccccc12)C(=O)N[C@@H](CCCN=C(N)N)C(=O)N[C@@H](Cc1c[nH]c2ccccc12)C(=O)N[C@@H](Cc1c[nH]c2ccccc12)C(=O)N[C@@H](Cc1c[nH]c2ccccc12)C(=O)N[C@@H](CCCN=C(N)N)C(=O)N[C@@H](Cc1c[nH]c2ccccc12)C(=O)N[C@H](C(N)=O)C(C)C [VWRWWWRWV] (system: Klebsiella pneumoniae ATCC 700603).
Result: 0.90

Problem: For Klebsiella pneumoniae ATCC 700603, provide log10(MIC) of CC[C@H](C)[C@@H]1NC(=O)CNC(=O)[C@H](CCCN=C(N)N)NC(=O)CNC(=O)[C@@H]2CSSC[C@H](NC1=O)C(=O)N[C@@H](Cc1ccc(O)cc1)C(=O)N[C@@H](CCCN=C(N)N)C(=O)N[C@@H](CCCN=C(N)N)C(=O)N[C@H](C(=O)N[C@@H](CCCN=C(N)N)C(=O)O)CSSC[C@H](NC(=O)[C@H](Cc1c[nH]c3ccccc13)NC(=O)[C@@H](N)CCCCN)C(=O)N[C@@H](Cc1ccccc1)C(=O)N[C@@H](CCCN=C(N)N)C(=O)N[C@@H](C(C)C)C(=O)N2 [KWCFRVCGRGICYRRCR] please.
Result: 0.57

Problem: Form field - read-out: log10(MIC); system: Klebsiella pneumoniae ATCC 700603; submitted item: CC(C)C[C@H](NC(=O)[C@H](C)NC(=O)[C@H](CO)NC(=O)[C@H](CCCCN)NC(=O)[C@H](CC(C)C)NC(=O)[C@H](CC(C)C)NC(=O)[C@@H](N)CC(N)=O)C(=O)N[C@@H](CCCCN)C(=O)N[C@H](C(=O)N[C@H](C(=O)N[C@@H](CC(N)=O)C(=O)N[C@@H](CCCCN)C(=O)N[C@@H](CC(C)C)C(=O)N[C@@H](CC(C)C)C(=O)N[C@@H](C)C(=O)N[C@@H](C)C(=O)N[C@@H](CO)C(N)=O)C(C)C)[C@@H](C)O [NLLKSALKTVNKLLAAS]
Result: 1.81

Problem: Test system Klebsiella pneumoniae ATCC 700603; read-out log10(MIC); what value for CC[C@H](C)[C@H](NC(=O)[C@@H](NC(=O)[C@@H]1CCCN1C(=O)[C@H](CC(C)C)NC(=O)[C@@H](N)Cc1ccccc1)[C@@H](C)CC)C(=O)NCC(=O)N[C@@H](CCCCN)C(=O)N[C@@H](CC(C)C)C(=O)N[C@@H](CC(C)C)C(=O)N[C@@H](CO)C(=O)NCC(=O)O [FLPIIGKLLSG] ?
Result: 0.94

Problem: Form: Entry = CC[C@H](C)[C@H](NC(=O)[C@H](CCCCN)NC(=O)[C@H](CCCCN)NC(=O)[C@H](C)NC(=O)[C@@H](NC(=O)[C@H](C)NC(=O)[C@H](CC(C)C)NC(=O)[C@H](C)NC(=O)[C@H](C)NC(=O)[C@H](CCCCN)NC(=O)[C@H](CC(C)C)NC(=O)[C@H](CC(N)=O)NC(=O)[C@@H](N)CC(C)C)C(C)C)C(=O)N[C@@H](CC(C)C)C(N)=O [LNLKAALAVAKKIL] | System = Klebsiella pneumoniae ATCC 700603 | log10(MIC) = ____
Result: 1.20
